Source of measurements: the supplement of paper PMC11451515

Exercise: for every item that follows, state its recorded cell viability.
# System: SEM cells
# assay-remarks: cell viability relative to DMSO control; higher = less cytotoxic
# measurement-parameters: RPMI 5 mM glucose + 10% FBS; 48 h; 1.71 µM
Please report the result as a number followed by the unit.

Worked cases, cell viability given:
[
  {
    "molecule": "CC(S)C(=O)NCC(=O)O (stereo not given)",
    "cell viability": "105%"
  },
  {
    "molecule": "Clc1ccccc1C(c1ccccc1)(c1ccccc1)n1ccnc1",
    "cell viability": "53.3%"
  },
  {
    "molecule": "CN(C(Cc1ccc(O[S+](=O)([O-])c2cccc3cnccc23)cc1)C(=O)N1CCN(c2ccccc2)CC1)[S+](=O)([O-])c1cccc2cnccc12 (stereo not given)",
    "cell viability": "96.9%"
  },
  {
    "molecule": "CN1CCN(CCCN2c3ccccc3Sc3ccc(Cl)cc32)CC1.O=C(O)/C=C\\C(=O)O.O=C(O)/C=C\\C(=O)O",
    "cell viability": "121%"
  }
]

### Prompt I am curious: what cell viability value has been reported for COc1ccc([S+](=O)([O-])Nc2cccnc2Nc2ccc(O)cc2)cc1 ?
### Response 79.1%

---

# Test system: NOMO1
# assay-remarks: cell viability relative to DMSO control; higher = less cytotoxic
# measurement-parameters: RPMI 5 mM glucose + 10% dialyzed FBS; 48 h; 0.00234 µM
measurement-kind: cell viability (%)
Answers are plain numbers, in %.

[
  {
    "compound": "CCN(CC)CCCC(C)Nc1nc(C)cc(Nc2ccc3nc(C)cc(N)c3c2)n1 (stereo not given)",
    "unit-label": "%",
    "test-result": 108
  },
  {
    "compound": "NNc1nncc2ccccc12",
    "unit-label": "%",
    "test-result": 139
  }
]

Your task in this section: give cell viability for each listed record.
1. CC(C)CC(N(C)C)C1(c2ccc(Cl)cc2)CCC1 (stereo not given)
2. COC(=O)C/1=C(C)/N/C(=C(\C1C2=CC(=CC=C2)[N+]([O-])=O)C(=O)OCCCN3CCC(CC3)(C4=CC=CC=C4)C5=CC=CC=C5)C (stereo not given)

### Response
1: 110; 2: 93.8

Your task in this section: give cell viability for each listed record.
1. N=C(N)Nc1ccc(C(=O)Oc2ccc3cc(C(=N)N)ccc3c2)cc1
2. CN(C)CCc1c[nH]c2ccc(C[S+](=O)([O-])N3CCCC3)cc12

### Response
[85.3, 95.8]

---

# System: SEM cells
# assay-remarks: cell viability relative to DMSO control; higher = less cytotoxic
# measurement-parameters: RPMI 5 mM glucose + 10% dialyzed FBS; 48 h; 0.00702 µM
Exercise: for every item that follows, state its recorded cell viability.
Give bare numbers, in %.

Worked cases, cell viability given:
[
  {
    "substance-smiles": "N#Cc1ccnc(N2C(=O)CC[C@H]2C(=O)N(c2cncc(F)c2)[C@H](C(=O)NC2CC(F)(F)C2)c2ccccc2Cl)c1",
    "unit-label": "%",
    "test-result": 94.6
  },
  {
    "substance-smiles": "CCOC(=O)O[C@]1(C(=O)OCCl)CC[C@H]2[C@@H]3CCC4=CC(=O)C=C[C@]4(C)[C@H]3[C@@H](O)C[C@@]21C",
    "unit-label": "%",
    "test-result": 93.6
  },
  {
    "substance-smiles": "Cc1ccc(-c2cc(C(F)(F)F)nn2-c2ccc([S+](N)(=O)[O-])cc2)cc1",
    "unit-label": "%",
    "test-result": 126
  }
]

Then there is this compound:
### Prompt Please provide the recorded cell viability for Cc1cccc2c1CC[C@H](CN1CCC(c3c(Cl)cccc3Cl)CC1)C[C@@H]2O , tested on SEM cells.
### Response 118

---

# System: SEM cells
# assay-remarks: cell viability relative to DMSO control; higher = less cytotoxic
# measurement-parameters: HPLM + 10% dialyzed FBS; 48 h; 0.00234 µM
Exercise: for every item that follows, state its recorded cell viability.
One number for each entry, in %.

Worked cases, cell viability given:
[
  {
    "molecule": "CC1=C(/C=C/C(C)=C/C=C/C(C)=C/C(=O)O)C(C)(C)CCC1",
    "cell viability / %": 114
  },
  {
    "molecule": "CC/1=C(\\CCN2CCC(CC2)C3=NOC4=C3C=CC(=C4)F)C(=O)N/5CCCCC5=N1",
    "cell viability / %": 91.1
  },
  {
    "molecule": "Cc1c(C(=O)c2cccc3ccccc23)c2cccc3c2n1[C@H](CN1CCOCC1)CO3",
    "cell viability / %": 78.2
  },
  {
    "molecule": "CC(C)(C)C1=CC(=C(NC(=O)C/2=C/NC3=C(C=CC=C3)C2=O)C=C1O)C(C)(C)C",
    "cell viability / %": 118
  },
  {
    "molecule": "Nc1nc(NCCNc2ncc(-n3ccnc3)c(-c3ccc(Cl)cc3Cl)n2)ccc1[N+](=O)[O-]",
    "cell viability / %": 134
  }
]

Your task in this section: give cell viability for each listed record.
1. COc1cc2c(Nc3ccc(Cl)c(Cl)c3F)ncnc2cc1OC[C@@H]1C[C@@H]2CN(C)C[C@@H]2C1
2. CC(C)CC(N(C)C)C1(c2ccc(Cl)cc2)CCC1 (configuration not stated)
3. CCOCC(O)COc1ccc(NC(=O)CC[S+](C)C)cc1 (configuration not stated)
4. CC(C)[N+]1(C)C2CCC1CC(OC(=O)C(CO)c1ccccc1)C2.O.[Br-] (configuration not stated)
5. Oc1c(Cl)cc(Cl)c2cccnc12
6. N#C/C(=C1/Nc2ccccc2S1)c1ccnc(OCc2ccc(CN3CCOCC3)cc2)n1
7. CC(C)(C)OC(=O)Nc1ccc(-c2cc(C(=O)NCCCCCCC(=O)NO)no2)cc1

### Response
[78.5, 119, 77.9, 97.8, 77, 97.2, 87.7]

---

# Test system: NOMO1
# assay-remarks: cell viability relative to DMSO control; higher = less cytotoxic
# measurement-parameters: RPMI 5 mM glucose + 10% FBS; 48 h; 0.00234 µM
Exercise: for every item that follows, state its recorded cell viability.
Please report the result as a number followed by the unit.

[
  {
    "molecule": "N#Cc1ccc(NC(=O)Nc2ccccc2Br)c2nn[nH]c12",
    "measurement-kind": "cell viability",
    "test-result": "122%"
  },
  {
    "molecule": "C[C@H]1Oc2cc(cnc2N)-c2c(nn(C)c2C#N)CN(C)C(=O)c2ccc(F)cc21",
    "measurement-kind": "cell viability",
    "test-result": "132%"
  },
  {
    "molecule": "C[N]1C=C(C=N1)C2=CC=C3N=CC\\4=C(N(C(=O)\\C=C4)C5=CC6=C(CCN6C(=O)C=C)C=C5)C3=C2",
    "measurement-kind": "cell viability",
    "test-result": "104%"
  }
]

Your task in this section: give cell viability for each listed record.
1. CC1=C(/C=C/C(C)=C/C=C/C(C)=C/C(=O)O)C(C)(C)CCC1
2. CC(C)Cn1cnc2c(N)nc3ccccc3c21
3. CC[C@H]1CN2CCc3cc(OC)c(OC)cc3[C@@H]2C[C@@H]1C[C@H]1NCCc2cc(OC)c(OC)cc21
4. C[C@@H](N)C1CC[C@@H](CC1)C(=O)NC2=CC=NC=C2 (stereo not given in full)
5. N#C/C(=C1/Nc2ccccc2S1)c1ccnc(OCc2ccc(CN3CCOCC3)cc2)n1

### Response
1: 124%; 2: 110%; 3: 127%; 4: 97.3%; 5: 109%

Your task in this section: give cell viability for each listed record.
1. Nc1ccn([C@H]2CS[C@@H](CO)O2)c(=O)n1
2. CC(C)(C)OC(=O)Nc1ccc(-c2cc(C(=O)NCCCCCCC(=O)NO)no2)cc1
3. CN1CCN(CCCN2c3ccccc3Sc3ccc(Cl)cc32)CC1.O=C(O)/C=C\C(=O)O.O=C(O)/C=C\C(=O)O
4. CN(C)[C@@H](CCOc1cccc2ccccc12)c1ccccc1
5. C=CC(=O)Nc1ccc2ncnc(Nc3ccc(OCc4cccc(F)c4)c(Cl)c3)c2c1
6. CC(C)(O)C(=O)Nc1ccc([N+](=O)[O-])c(C(F)(F)F)c1
7. Oc1ccc(-c2ccc(-c3cc(Nc4cccc(CNC5CC5)c4)[nH]n3)cc2)c(O)c1

### Response
1: 122%; 2: 80.1%; 3: 106%; 4: 112%; 5: 91.8%; 6: 123%; 7: 99%

Your task in this section: give cell viability for each listed record.
1. CC(C)CC(N(C)C)C1(c2ccc(Cl)cc2)CCC1 (stereo not given)
2. CC[C@@H]1C(=O)N(C)c2cnc(Nc3ccc(C(=O)NC4CCN(C)CC4)cc3OC)nc2N1C1CCCC1
3. CCCCCN(CCC12CC3CC(CC(C3)C1)C2)C(=O)NCCCc1ccncc1
4. CN(C)CCOc1ccc(/C(=C(/CCCl)c2ccccc2)c2ccccc2)cc1
5. N=C(N)NC(=N)N1CCOCC1

### Response
113%
112%
110%
104%
93.1%
